Target: hT2R54 (Homo sapiens)
Construct: expressed in transfected cells; it overexpresses a promiscuous G protein
Assay: Cell-based assay for measuring hT2R54 inhibition (FLIPR calcium, Fluo4AM, acetaminophen as bitter agonist)
Conditions: Table 2; cells stably expressing hT2R54 and a promiscuous G protein; read-out: hT2R54 IC50
pIC50: −log10 of the molar value.
Endpoint label: pIC50

Below are worked cases with known answers.
COc1cc2c(cc1NC(=O)CN1CCN(C(=O)Cc3ccccc3)CC1)OCO2 [compound 370] : 6.40
CC(=O)c1cc2c(cc1NC(=O)CN1CCN(C(=O)CC3CCOC3)CC1)OCCO2 (stereo not drawn) [compound 344] : 7.30
CC(=O)c1cc2c(cc1NC(=O)CN1CCN(C(=O)c3ccn(C)n3)CC1)OCO2 [compound 71] : 7.30
CC(=O)c1cc2c(cc1NC(=O)CN1CCN(C(=O)NCc3ccccc3)CC1)OCO2 [compound 32] : 7.68

P = COc1cc2c(cc1NC(=O)CN1CCN(C(=O)c3ccccn3)CC1)OCO2 [compound 94]
Q = COC(=O)c1cc2c(cc1NC(=O)CN1CCN(C(=O)CN3CCOCC3)CC1)OCO2 [compound 352]
For P and Q , which recorded pIC50 is lower? Reply with the label of the item you choose.
P
(P: 5.82, Q: 6.13)

a = COc1ccc(F)cc1C(=O)N1CCN(CC(=O)Nc2cc3c(cc2C(C)=O)OCO3)CC1 [compound 2]
b = CC(=O)c1cc2c(cc1NC(=O)CN1CCN(C(=O)c3ccc(C)s3)CC1)OCO2 [compound 67]
c = CC(=O)c1cc2c(cc1NC(=O)CN1CCN(C(=O)c3cc4ccccc4o3)CC1)OCO2 [compound 80]
d = CC(=O)c1cc2c(cc1NC(=O)CN1CCN(C(=O)c3ccncc3)CC1)OCCO2 [compound 327]
# rank_down: sort by pIC50, max first Provide the ranking by listing each label in its place in the requested order.
b, a, d, c
(b: 7.82, a: 7.57, d: 7.15, c: 6.30)

A = CC(=O)c1cc2c(cc1NC(=O)CN1CCN(C(=O)c3c[nH]c(C)n3)CC1)OCO2 [compound 309]
B = COCc1ccc(C(=O)N2CCN(CC(=O)Nc3cc4c(cc3C(C)=O)OCCO4)CC2)cc1 [compound 325]
Of the two listed items, A and B , which carries the larger pIC50 figure? Reply with the label of the item you choose.
B

P = COCc1ccc(C(=O)N2CCN(CC(=O)Nc3cc4c(cc3C(C)=O)OCO4)CC2)cc1 [compound 282]
Q = CC(=O)c1cc2c(cc1NC(=O)CN1CCN(C(=O)c3ccccc3)CC1)OCO2 [compound 34]
Of the two listed items, P and Q , which carries the larger pIC50 figure? Reply with the label of the item you choose.
Q
(Q: 7.70, P: 7.42)

----------
Biological target: hT2R54 (Homo sapiens, UniProt P59534)
Construct: expressed in transfected cells; it overexpresses a promiscuous G protein
Sequence (P59534 whole entry): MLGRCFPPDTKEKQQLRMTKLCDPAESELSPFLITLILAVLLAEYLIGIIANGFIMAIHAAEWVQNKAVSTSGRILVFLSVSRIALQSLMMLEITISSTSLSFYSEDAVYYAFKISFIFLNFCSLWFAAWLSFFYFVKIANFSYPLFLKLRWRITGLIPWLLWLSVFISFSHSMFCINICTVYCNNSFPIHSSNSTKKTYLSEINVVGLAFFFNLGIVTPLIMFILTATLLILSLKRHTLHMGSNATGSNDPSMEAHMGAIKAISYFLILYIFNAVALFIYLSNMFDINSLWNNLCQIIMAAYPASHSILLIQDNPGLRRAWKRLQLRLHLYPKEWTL
Assay: Cell-based assay for measuring hT2R54 inhibition (FLIPR calcium, Fluo4AM, acetaminophen as bitter agonist)
Conditions: Table 8; read-out: hT2R54 IC50
pIC50: −log10 of the molar value.
Quick list: pIC50 per entry.

Below are worked cases with known answers.
COc1cc2c(cc1NC(=O)CC1CCN(C(=O)C3CCCO3)CC1)OCO2 (centres unmarked) : < 5.00
CC(=O)c1cc2c(cc1NC(=O)CC1CCN(C(=O)c3cnn[nH]3)CC1)OCO2 : 7.02
COc1cc2c(cc1NC(=O)CC1CCCN(C(=O)CC(C)C)C1)OCO2 (centres unmarked) : < 5.00
CC(=O)c1cc2c(cc1NC(=O)CC1CCN(C(=O)C3CCN(C)C3)CC1)OCO2 (centres unmarked) : < 4.30

Please examine the following record next.
State, in one line, measured pIC50 of "CC(=O)c1cc2c(cc1NC(=O)CC1CCN(C(=O)C(C)C)CC1)OCO2"
< 6.00

----------
Target: hT2R54 (Homo sapiens, UniProt P59534)
Construct: expressed in transfected cells; it overexpresses a promiscuous G protein
Test: Cell-based assay for measuring hT2R54 inhibition (FLIPR calcium, Fluo4AM, acetaminophen as bitter agonist)
Conditions: Table 4; cells stably expressing hT2R54 and a promiscuous G protein; read-out: hT2R54 IC50
Endpoint label: IC50 (nM)

CCN(CCOC)CC(=O)Nc1cc2c(cc1C(C)=O)OCO2 : 2000
CC(=O)c1cc2c(cc1NC(=O)CN1CCOCC1)OCO2 : 588
CC(=O)c1cc2c(cc1NC(=O)CN1CCC(C)CC1)OCO2 : 183

A = CCOC(=O)C1CCCN(CC(=O)Nc2cc3c(cc2OC)OCO3)C1 (stereo not shown)
B = CCc1cc2c(cc1NC(=O)CN1CCN(C(=O)OC(C)(C)C)CC1)OCO2
For A and B , which recorded IC50 is lower? Reply with the label of the item you choose.
A
(A: 188 nM, B: 700 nM)

----------
Biological target: hT2R54 (Homo sapiens, UniProt P59534)
Construct: expressed in transfected cells; it overexpresses a promiscuous G protein
Experiment: Cell-based assay for measuring hT2R54 inhibition (FLIPR calcium, Fluo4AM, acetaminophen as bitter agonist)
Conditions: Table 4; cells stably expressing hT2R54 and a promiscuous G protein; read-out: hT2R54 IC50
pIC50: −log10 of the molar value.
Endpoint label: pIC50

Below are worked cases with known answers.
COCCN(C)CC(=O)Nc1cc2c(cc1C(C)=O)OCO2 : 5.94
CCOC(=O)C1CCCCN1CC(=O)Nc1cc2c(cc1C(C)=O)OCO2 (stereo not shown) : 7.11

I = CC(=O)c1cc2c(cc1NC(=O)CN1CCOCC1)OCCO2
II = CC(=O)c1cc2c(cc1NC(=O)CN1CCOc3ccccc31)OCO2
For I and II , which recorded pIC50 is lower? Reply with the label of the item you choose.
II

P = CC(=O)c1cc2c(cc1NC(=O)C(C)N1CCOCC1)OCO2 (stereo not shown)
Q = CC(=O)c1cc2c(cc1NC(=O)CN(C)CCC(=O)N(C)C)OCO2
Of the two listed items, P and Q , which carries the larger pIC50 figure? Reply with the label of the item you choose.
P
(P: 6.44, Q: 6.02)

----------
Molecular target: hT2R54 (Homo sapiens)
Construct: expressed in transfected cells; it overexpresses a promiscuous G protein
Test: Cell-based assay for measuring hT2R54 inhibition (FLIPR calcium, Fluo4AM, acetaminophen as bitter agonist)
Conditions: Table 2; cells stably expressing hT2R54 and a promiscuous G protein; read-out: hT2R54 IC50
Protocol: Cells stably expressing hT2R54 and a promiscuous G protein were seeded in 384 well plates 24 hours prior to the experiment. […] Baseline was recorded for 10 seconds, then 25 μl of […] was added onto 25 μl of cells and resulting changes in fluorescence were monitored over an additional 3 minutes. […] The ability of a test compound that blocks bitter taste elicited through hT2R54 was measured in this assay, as follows. […]
Endpoint label: IC50 (nM)

COc1cc2c(cc1NC(=O)CN1CCN(C(=O)Cc3ccoc3)CC1)OCO2 : 130
COCc1ccc(C(=O)N2CCN(CC(=O)Nc3cc4c(cc3OC)OCO4)CC2)o1 : 100
CC(=O)c1cc2c(cc1NC(=O)CN1CCN(C(=O)c3ccn[nH]3)CC1)OCCO2 : 90

----------
Molecular target: hT2R54 (Homo sapiens, UniProt P59534)
Construct: expressed in transfected cells; it overexpresses a promiscuous G protein
Experiment: Cell-based assay for measuring hT2R54 inhibition (FLIPR calcium, Fluo4AM, acetaminophen as bitter agonist)
Details: Table 8; read-out: hT2R54 IC50
pIC50: −log10 of the molar value.
Endpoint label: pIC50

Below are worked cases with known answers.
CC(=O)c1cc2c(cc1NC(=O)CC1CCCN(C(=O)c3ccccn3)C1)OCO2 (centres unmarked) [compound 507] : 6.56
CC(=O)c1cc2c(cc1NC(=O)CC1CCN(C(=O)Cc3ccncc3)CC1)OCO2 [compound 251] : 6.24
COC(=O)c1cc2c(cc1NC(=O)CC1CCCN(C(C)=O)C1)OCO2 (centres unmarked) [compound 480] : 5.85

I = CC(=O)c1cc2c(cc1NC(=O)CC1CCCN(C(=O)c3cnn(C)c3)C1)OCO2 (centres unmarked) [compound 221]
II = CC(=O)c1cc2c(cc1NC(=O)CC1CCN(C(=O)[C@@H]3CCCO3)CC1)OCO2 [compound 472]
III = CC(=O)c1cc2c(cc1NC(=O)CC1CCCN(C(=O)c3ccc(O)cc3)C1)OCO2 (centres unmarked) [compound 219]
IV = COc1cc2c(cc1NC(=O)CC1CCCN(C(=O)c3ccco3)C1)OCO2 (centres unmarked) [compound 512]
# rank_down: sort by pIC50, max first Provide the ranking by listing each label in its place in the requested order.
I, II, III, IV

a = CC(=O)c1cc2c(cc1NC(=O)CC1CN(C(=O)CC(C)C)CCO1)OCO2 (centres unmarked) [compound 229]
b = CC(=O)c1cc2c(cc1NC(=O)CC1CCN(C(=O)CC(C)C)CC1)OCO2 [compound 198]
Of the two listed items, a and b , which carries the larger pIC50 figure? Reply with the label of the item you choose.
b

I = CCCOC(=O)N1CCCC(CC(=O)Nc2cc3c(cc2C(C)=O)OCO3)C1 (centres unmarked) [compound 214]
II = CC(=O)c1cc2c(cc1NC(=O)CC1CCN(C(=O)Cc3cccc(F)c3)CC1)OCO2 [compound 249]
III = CC(=O)c1cc2c(cc1NC(=O)CC1CCN(C(=O)c3nc(C)c[nH]3)CC1)OCO2 [compound 465]
IV = CC(=O)c1cc2c(cc1NC(=O)CC1CCCN(C(=O)c3cc(O)cc(O)c3)C1)OCO2 (centres unmarked) [compound 455]
Task for the reader: rank each entry by its pIC50, from the minimum upward. Provide the ranking by listing each label in its place in the requested order.
IV, II, I, III
(IV: 5.22, II: 5.60, I: 6.49, III: 7.34)
